Values compiled from patent US20260033491A1.

# System: Purpureocillium lilacinum spores
# Method summary: Spore viability (germination rate) of Purpureocillium lilacinum spores dispersed in fluid and stored at 30° C.
# Assay type: cell-based
# Test context: P. lilacinum spores in fluid, storage at 30° C., 12-15 d
Entries and their spore viability [%] after 2 w (12-15 d)
Express it in %; write the number only.

# annotated cases, reported spore viability [%] after 2 w (12-15 d) shown
CC(C)CCCCCCOC(=O)C1CCCCC1C(=O)OCCCCCCC(C)C (stereo not drawn) :: 97.3
CCCCCCCC/C=C\CCCCCCCC(=O)OCC(CC)CCCC (stereo not drawn) [Radia 7331, 2-Ethylhexyl oleate] :: 97.9
CC(C)OC(=O)CCCCC(=O)OC(C)C [Crodamol DA, Diisopropyl adipate] :: 94.3
CCCCCCCC/C=C\CCCCCCCC(=O)OCC(CC)CCCC (stereo not drawn) [Radialube 7130, 2-Ethylhexyl oleate] :: 98.5
CC(=O)OCC(COC(C)=O)OC(C)=O [Triacetin, Glycerin triacetate] :: 97.9

In: Given the compound CCCCCCCCCCCC(=O)OCC(CC)CCCC (stereo not drawn) [Radia 7127, 2-Ethylhexyl laurate] , what is its reported spore viability [%] after 2 w (12-15 d)?
Out: 99.0

====

# System: Penicillium bilaii spores
# Method summary: Spore viability (germination rate) of Penicillium bilaii spores dispersed in fluid and stored at 30° C.
# Format: cell-based
# Test context: Penicillium bilaii spores in fluid, storage at 30° C., 41-43 d
Observable: spore viability [%] 6 w@30° C. (41-43 d)

Some molecules with known spore viability [%] 6 w@30° C. (41-43 d) results, for comparison:
CC(C)CCCCCCOC(=O)C1CCCCC1C(=O)OCCCCCCC(C)C (stereo not drawn) :: 89.4%
CC(=O)OCC(COC(C)=O)OC(C)=O [Triacetin, Glycerin triacetate] :: 83.2%
CCCCCCCCCCCC(=O)OCC(CC)CCCC (stereo not drawn) [Radia 7127, 2-Ethylhexyl laurate] :: 96%
CCCCOC(=O)CC(CC(=O)OCCCC)(OC(C)=O)C(=O)OCCCC :: 83.8%

In: Given CCCCOC(=O)CCCCC(=O)OCCCC [Adimoll DB, di-n-Butyl adipate] , state its recorded spore viability [%] 6 w@30° C. (41-43 d).
Out: 90.8%

In: Requested field: spore viability [%] 6 w@30° C. (41-43 d). Item: CCCCCCCC/C=C\CCCCCCCC(=O)OCC(CC)CCCC (stereo not drawn) [Radia 7331, 2-Ethylhexyl oleate]
Out: 91.4%

====

Documented spore viability [%] initial (1-2 d) across a set of compounds
# System: Penicillium bilaii spores
# Method summary: Spore viability (germination rate) of Penicillium bilaii spores dispersed in fluid and stored at 30° C.
# Type: cell-based
# Test context: Penicillium bilaii spores in fluid, 1-2 d
Remember to put the unit after the number in your answer.

CCCCCCCC/C=C\CCCCCCCC(=O)OCC(CC)CCCC (stereo not drawn) [Radia 7331, 2-Ethylhexyl oleate] :: 97.1%
CC(=O)OCC(COC(C)=O)OC(C)=O [Triacetin, Glycerin triacetate] :: 92.9%
CCCCCCCCCCCC(=O)OCC(CC)CCCC (stereo not drawn) [Radia 7127, 2-Ethylhexyl laurate] :: 97.1%

In: Would you mind telling me what spore viability [%] initial (1-2 d) value was observed for CCCCOC(=O)CC(CC(=O)OCCCC)(OC(C)=O)C(=O)OCCCC [Acetyltributylcitrat, O-Acetyl citric acid tributyl ester] ?
Out: 98.4%

In: Record request: spore viability [%] initial (1-2 d) value, item CCCCOC(=O)CCCCC(=O)OCCCC [Adimoll DB, di-n-Butyl adipate]
Out: 97.5%

In: Consider the compound CC(C)CCCCCCOC(=O)C1CCCCC1C(=O)OCCCCCCC(C)C (stereo not drawn) [Agnique AE829] and give its measured spore viability [%] initial (1-2 d).
Out: 95.3%
